For each of the compounds below, state its normalized growth.
protocol_description: chemical genetic growth profiling, strain panel (AID 1159580);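 note: tested at 20 µM; growth read once vehicle control cultures reached saturation at 30 °C; 1 = growth at the plate median or of vehicle wells; lower values mean less growth of the strain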
assay_setup: S. cerevisiae deletion strains, growth OD, locus YPL256C, strain CLN2, hits give low values
The whole screen tested about 5,500 compounds, of which about 2,000 (36%) were called active. About 18% were inconclusive and are not listed. The list shows a part of the results.
The reply should be a number, written without any unit.

Data point: CCOC(=O)c1cnc2c(c(C)nn2C)c1Sc1nnc(SC)s1 ; normalized growth = 0.789

Data point: COc1ccc([C@H]2COc3c(ccc(O)c3OC)C2)c(OC)c1O ; normalized growth = 1.03

Data point: S=C(Nc1ccc(Cl)cc1)Nc1ccc(Cl)cc1 ; normalized growth = 0.819

Data point: CCC1C(=O)OCC1Cc1cncn1C (centres undefined) ; normalized growth = 0.979

Data point: CO[C@H]1C[C@H](O[C@H]2[C@H](C)[C@@H](OC3O[C@H](C)C[C@H](N(C)C)[C@H]3OC(C)=O)[C@@H](C)C[C@]3(CO3)C(=O)[C@H](C)[C@@H](OC(C)=O)[C@@H](C)[C@@H](C)OC(=O)[C@@H]2C)O[C@@H](C)[C@@H]1OC(C)=O (some centres undefined) ; normalized growth = 0.959

Data point: CC[C@@H](CO)NC(=O)[C@@H]1C=C2c3cccc4[nH]cc(c34)C[C@H]2N(C)C1 ; normalized growth = 1.1

Data point: CCc1cccc2c3c([nH]c12)C(CC)(CC(=O)O)OCC3 (centres undefined) ; normalized growth = 0.981

Data point: CCCc1nc2c(C)cc(-c3nc4ccccc4n3C)cc2n1Cc1ccc(-c2ccccc2C(=O)O)cc1 ; normalized growth = 0.969

Data point: CCOC([O-])=Nc1c[n+](N2CCOCC2)no1 ; normalized growth = 1.04

Data point: CCCCc1nc(Cl)c(CO)n1Cc1ccc(-c2ccccc2-c2nn[nH]n2)cc1 ; normalized growth = 0.967

Data point: CC[C@H]1OC(=O)[C@H](C)[C@@H](O[C@H]2C[C@@](C)(OC)[C@@H](O)[C@H](C)O2)[C@H](C)[C@@H](O[C@@H]2O[C@H](C)C[C@H](N(C)C)[C@H]2O)[C@](C)(O)C[C@@H](C)[C@@H]2N[C@@H](COCCOC)O[C@H]([C@H]2C)[C@]1(C)O ; normalized growth = 1.01

Data point: NCCNCCNCCN ; normalized growth = 1.01

Data point: COc1ccc2c(c1OC)OC[C@@H](c1ccc(OC)c(OC)c1OC)C2 ; normalized growth = 1.06

Data point: CO[C@@]1(NC(=O)Cc2cccs2)C(=O)N2C(C(=O)O)=C(COC(N)=O)CS[C@@H]21 ; normalized growth = 1.08

Data point: OC(c1cc(C(F)(F)F)nc2c(C(F)(F)F)cccc12)C1CCCCN1 (centres undefined) ; normalized growth = 0.946

Data point: COc1ccc(-c2oc3ccccc3c(=O)c2O)cc1OC ; normalized growth = 0.994

Data point: N#C/C(=N/Nc1cccc(C(F)(F)F)c1)C(=O)c1csc(-c2cccnc2)n1 ; normalized growth = 0.236

Data point: CN1CCN(CC(=O)N2c3ccccc3C(=O)Nc3cccnc32)CC1 ; normalized growth = 0.978

Data point: OC(CSc1ccccc1)CN1CCN(c2nc(-c3ccccc3)ns2)CC1 (centres undefined) ; normalized growth = 0.889
